solubility thermodynamic at 3 min values, listed per item
Assay: pH-solubility of polypeptide variants
Format: physicochemical
Conditions: pH 7.5; a: precipitate, supernatant assayed; read-out: pH-solubility, Concentration
Protocol: Solubility study of variants was performed by adding variants powders into solvent in concentration of 5 mg/ml and then vortexing for 3 min. Observe the appearance of solutions in 5 min. Add more powder (˜5 mg/ml each time) and repeat vortex and observe until precipitation or gelation occurs.
Peptide text beside a SMILES is read from it.
Please reply with the bare figure in mg/mL and do not write the unit itself.

QUERY: Entry CC[C@H](C)[C@H](NC(=O)CNC(=O)[C@@H](N)CC(=O)O)C(=O)N[C@@H](Cc1c[nH]c2ccccc12)C(=O)N[C@@H](CCCCN)C(=O)N[C@@H](C)C(=O)N[C@@H](CO)C(=O)N[C@@H](Cc1ccccc1)C(N)=O [SEQ ID NO.21] (H-DGIWKASF-NH2) : reported solubility thermodynamic at 3 min = ?
RESULT: 0.25

Data credit: patent US12280088B2
